test: Inhibition of IL-17 in human PBMC
reported-endpoint: IC50 (nM)
One number for each entry, in nM.

IN: Consider the molecule COc1cc(OC)c2c(=O)[nH]c(-c3cc(C)c(OCCN4CCCC4)c(C)c3)nc2c1 and give its recorded IC50.
OUT: 1300

The measured values listed here are drawn from BindingDB's records for PubMed 35324195.
